Recorded values, source the RNAGym collection of RNA variant scans (doi:10.1002/anie.201605470).

B1: Osa-1-4 twister ribozyme (parent)
chain: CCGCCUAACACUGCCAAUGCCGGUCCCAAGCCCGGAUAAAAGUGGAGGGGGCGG

# Variants of: B1
# protocol-notes: self-cleavage, relative activity (ratio to wild type); higher = more cleavage; co-transcriptional
readout-name: self-cleavage
Format: numeric value only, no unit, no commentary.

self-cleavage reading for G35C G53U : 0.09

self-cleavage reading for C15A G47C : 0.04

self-cleavage reading for A39U G42C : 0.11

self-cleavage reading for C9U G54A : 0.69

self-cleavage reading for G22C G45U : 0.03

self-cleavage reading for G13C G23U : 0.02

self-cleavage reading for G30U G51U : 0.03

self-cleavage reading for C14U C32G : 0.04

self-cleavage reading for A39C : 0.99

self-cleavage reading for C20A C27G : 0.09

self-cleavage reading for G34C G49C : 0.06

self-cleavage reading for A40G G44A : 0.21

self-cleavage reading for A10G C33G : 0.07

self-cleavage reading for A17G G48A : 0.15

self-cleavage reading for C31A G48U : 0.01

self-cleavage reading for A41U U12A : 1.05

self-cleavage reading for A17U A39U : 1.03

self-cleavage reading for A17C U18C : 0.57

self-cleavage reading for G23A U18C : 0.49

self-cleavage reading for A28U C26A : 0.04

self-cleavage reading for C14U U24C : 0.05

self-cleavage reading for C33A G49U : 0.04

self-cleavage reading for A40U C52A : 0.4

self-cleavage reading for C20A U37G : 0.89

self-cleavage reading for C15G G23U : 0.04

self-cleavage reading for A17G C31G : 0.22

self-cleavage reading for A17G C20U : 0.97

self-cleavage reading for C20G U43G : 0.09

self-cleavage reading for A10U A8U : 0.04

self-cleavage reading for G42A U12A : 0.15

self-cleavage reading for C25A G23U : 0.03

self-cleavage reading for A28U U12A : 0.38

self-cleavage reading for C20G G22C : 0.05

self-cleavage reading for A16G A38C : 0.98

self-cleavage reading for C32G G45U : 0.04

self-cleavage reading for C15U G19U : 0.46

self-cleavage reading for G35C G48A : 0.05

self-cleavage reading for A29C C20A : 0.03
